- Procedure Details: in vivo
- Conditions Used: mouse, ip
Reported Endpoint: MTD at 5 days

Report MTD at 5 days for Cc1cc(=O)[nH]c2c1C(=O)c1c(C)cc(=O)n(C)c1C2=O [DNQ, Deoxynyboquinone, reference compound] 18 µmol/kg

----------
solubility by entry:
- Procedure Details: Solubility in organic solvents
- Type: physicochemical
- Conditions Used: organic solvent or mixture, thermodynamic from solid; DMSO; Table 1; read-out: DMSO solubility
Write down the numeric answer in mM and omit the unit.

Some solved entries appear below for comparison.
1) Cc1cc(=O)[nH]c2c1C(=O)c1c(C)cc(=O)n(CC(C)(C)C)c1C2=O    16
2) Cc1cc(=O)[nH]c2c1C(=O)c1c(C)cc(=O)n(CCC(C)(C)C)c1C2=O    15

Then this molecule:
Report solubility for CCCc1cc(=O)[nH]c2c1C(=O)c1c(C)cc(=O)n(C)c1C2=O 4.2

----------
- Procedure Details: Solubility in organic solvents
- Format: physicochemical
- Conditions Used: organic solvent or mixture, thermodynamic from solid; DMSO; Table 1; read-out: DMSO solubility
Reported Endpoint: solubility (mM)
Write down the numeric answer in mM and omit the unit.

Some solved entries appear below for comparison.
1. Cc1cc(=O)[nH]c2c1C(=O)c1c(C)cc(=O)n(CCC(C)C)c1C2=O [Compound 9-249]    8.6
2. CCCCCn1c2c(c(C)cc1=O)C(=O)c1c(C)cc(=O)[nH]c1C2=O [Compound 9-255]    17
3. Cc1cc(=O)[nH]c2c1C(=O)c1c(C)cc(=O)n(CCCO)c1C2=O [Compound 9-281]    24

Then this compound:
Report solubility for CCCCn1c2c(c(CCC)cc1=O)C(=O)c1c(CCC)cc(=O)[nH]c1C2=O [Compound 4-28] 7.1

----------
- Procedure Details: pKa, log P and log D of 4-31 measured by Absorption Systems
- Assay type: physicochemical
- Conditions Used: octanol/0.15 M KCl, unionized compound
- Source text: A sample of compound 4-31 was delivered to Absorption Systems, a company that specializes in preclinical formulation and stability studies. […] They measured a few physical properties of 4-31, including pKa, log P and log D. Through potentiometric titrations they measured the pKa of 4-31 to be 8.0.
Reported Endpoint: logP
Output spec: single numeric token, no unit.

Report logP for Cc1cc(=O)[nH]c2c1C(=O)c1c(C)cc(=O)n(CC(C)C)c1C2=O 1.8

----------
- Procedure Details: Solubility in organic solvents
- Type: physicochemical
- Conditions Used: organic solvent or mixture, thermodynamic from solid; DMSO; Table 1; read-out: DMSO solubility
solubility by entry:
Write down the numeric answer in mM and omit the unit.

1) Cc1cc(=O)n(C)c2c1C(=O)c1c(C)cc(=O)n(C)c1C2=O [SCH, reference compound]    15
2) CCCCn1c2c(c(CCC)cc1=O)C(=O)c1c(C)cc(=O)[nH]c1C2=O    14
3) CCCCCCn1c2c(c(C)cc1=O)C(=O)c1c(C)cc(=O)[nH]c1C2=O    18
4) CCCc1cc(=O)n(C)c2c1C(=O)c1c(C)cc(=O)[nH]c1C2=O    10
5) CCn1c2c(c(C)cc1=O)C(=O)c1c(C)cc(=O)[nH]c1C2=O    24
6) CCc1cc(=O)n(C)c2c1C(=O)c1c(C)cc(=O)[nH]c1C2=O    31
7) CCCCn1c2c(c(C)cc1=O)C(=O)c1c(C)cc(=O)[nH]c1C2=O    10

Report solubility for CCc1cc(=O)[nH]c2c1C(=O)c1c(CC)cc(=O)n(C)c1C2=O 21
